Entries annotated with measured inhibition
assay: growth suppression of yeast trafficking mutant, preliminary HTS, modulators of trafficking downstream of Golgi apparatus project, 1536-format plate, OD 615 nm (AID 637); settings: yeast transport mutant growth, absorbance 615 nm, 18 h; stronger effect = higher value
The reply should contain only the number, in %.

Worked examples follow.
Cc1nc(NCc2ccc3c(c2)OCO3)c2oc3ccccc3c2n1    -2.9
O=c1[nH]c(SCc2ccc(F)cc2)nc2c1cnn2-c1ccc(F)cc1    12.3
CCCOc1ccc2ccccc2c1/C=N/n1cnnc1    2.67
CC1(C)Oc2ccc3ccc(=O)oc3c2C(N2CCCCC2)C1O (centres undefined)    -4.33
CC1=C(C(=O)OC2CCCC2)C(c2ccc(C)o2)C2=C(CC(c3cccs3)CC2=O)N1 (centres undefined)    -11
Cn1c(=O)[nH]c(=O)c2c1nc(N1CCCCC1)n2CCSc1ncccn1    0.83
CCOc1ccccc1C(=O)Nc1cc(=O)n(C)c(=O)n1C    3.5
CC1Cc2nc(SCC(=O)Nc3nccs3)n(C)c(=O)c2S1 (centres undefined)    -1.67
COc1ccc(NS(=O)(=O)c2coc(C(N)=O)c2)cc1Cl    11
COc1ccc(C2CC(=O)C(C=NCCCN3CCOCC3)=C(O)C2)cc1 (centres undefined)    -1.33

Q) Report inhibition for Nc1nc2n(n1)C(c1c(F)cccc1Cl)CC(c1ccc(F)cc1)N2 (centres undefined) please.
A) 0.33

Q) Report inhibition for COc1ccc(NC(=O)CSc2nnc(Cc3cccn3C)n2-c2ccc(F)cc2)cc1OC please.
A) 3.17

Q) Report inhibition for CCOC(=O)N1CCN(Cc2nc3c(c(=O)n(C)c(=O)n3C)n2Cc2ccccc2)CC1 please.
A) 2.62

Q) Report inhibition for CCOc1ccc2nc(Nc3nc4c(c(=O)[nH]3)CCC4)nc(C)c2c1 please.
A) 1.83

Q) Report inhibition for CC(=O)c1cc2c(cc1NC(=O)CN1CCN(C(=O)c3ccco3)CC1)OCO2 please.
A) -3.5

Q) Report inhibition for Cc1ccc(C(=O)NC(Cc2c[nH]c3ccccc23)C(=O)O)o1 (centres undefined) please.
A) -5

Q) Report inhibition for COc1cccc(NC(=O)c2ccco2)c1 please.
A) -4.33

---

assay: reduced viability of SK-BR-3 breast cancer cells – cell-based, 24 h, human, pilot screen (AID 572); conditions: SK-BR-3 viability, CellTiter-Glo luminescence, at 10 µM, stronger effect = lower value;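 note: compound exposure lasted between 18 and 24 h rather than exactly 24 h; 100% = carrier-treated control wells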
Entries annotated with measured viability
The reply should contain only the number, in %.

O=C(COc1ccc(F)cc1)Nc1ccc(-n2cnnn2)cc1    103
CCCSc1nnc2nc3c(nn12)c1ccccc1n3C    86

Q) Report viability for CCOc1ccccc1C1C(C(=O)Nc2ccc(OC)cc2)=C(C)Nc2nc(CCCO)nn21 (configuration not stated) please.
A) 87.5

Q) Report viability for O=C(CS(=O)(=O)c1cn(Cc2ccc(F)cc2)c2ccccc12)N1CCCCC1 please.
A) 92

Q) Report viability for Cc1cc(C)n(-c2cc(N3CCOCC3)ncn2)n1 please.
A) 101

Q) Report viability for CN(C)CCN1C(=O)C(O)=C(C(=O)c2cc3ccccc3o2)C1c1ccc(N(C)C)cc1 (configuration not stated) please.
A) 98.5

Q) Report viability for COC(=O)CCCCCc1ccc(C(C)=O)s1 please.
A) 86.5

Q) Report viability for CCOC(=O)CCc1c(C)nc2cc(-c3ccc(F)cc3)[nH]n2c1=O please.
A) 97

Q) Report viability for CCn1cc(C(=O)NCC2CCCO2)c(=O)c2cc(S(=O)(=O)N(C)C3CCCCC3)ccc21 (configuration not stated) please.
A) 83.5

---

assay: growth suppression of yeast trafficking mutant, preliminary HTS, modulators of trafficking downstream of Golgi apparatus project, 1536-format plate, OD 615 nm (AID 637); details: yeast transport mutant growth, absorbance 615 nm, 18 h; stronger effect = higher value
Measured parameter: inhibition (%)
The reply should contain only the number, in %.

Worked examples follow.
Oc1ccccc1-c1nnc(COc2ccc(Cl)cc2Cl)o1    0.5
COc1ccc(S(=O)(=O)Cc2ccc(C(=O)N3CCN(c4ccccc4)CC3)o2)cc1    -7.5
COc1cccc(C(=O)Nc2cc(C)c3c(=O)oc4ccccc4c3n2)c1    -4.67

Q) Report inhibition for Cc1ccc(-c2noc(CN3CCN(c4ccccc4F)CC3)n2)cc1 please.
A) -1.5

Q) Report inhibition for Cc1ccc(-c2cc3nc4c(c(=O)n3[nH]2)CCCC4)cc1 please.
A) -10

Q) Report inhibition for Cc1cccc(Cc2c(C)nc3nc(SCC(=O)NCc4ccco4)nn3c2C)c1 please.
A) -0.33

Q) Report inhibition for O=C(NC1CCCCCC1)c1c(F)c(F)c(F)c(F)c1F please.
A) -8.67

Q) Report inhibition for CC(=O)c1ccc(NC(=O)C2CCN(S(=O)(=O)c3cccc4cccnc34)CC2)cc1 please.
A) -5

Q) Report inhibition for CN(C)CCCN1C(=O)CSC1c1ccccc1 (stereo not drawn) please.
A) -1.83

---

Entries annotated with measured viability increase
assay: doxorubicin toxicity protection in MRP-1 cells – H69AR cells, CellTiter-Glo, duplicate, MRP-1 activator project, pilot screen (AID 807); conditions: H69AR viability with doxorubicin, CellTiter-Glo luminescence; at 10 µM; stronger effect = higher value;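 note: compound pretreatment 18-22 h then 72 h combined with doxorubicin; 0% = doxorubicin alone and 100% = vehicle without doxorubicin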
The reply should contain only the number, in %.

CN1C(=O)CS(=O)c2ccc(C(=O)NCCC3=CCCCC3)cc21 (configuration not stated)    -2.35

Q) Report viability increase for c1ccc2c(c1)nc(NCCN1CCOCC1)c1nncn12 please.
A) 1.59

Q) Report viability increase for CCOC(=O)Cn1c(=O)c(-c2ccccc2N)nc2ccccc21 please.
A) -1.72

Q) Report viability increase for O=C(CC1Oc2ccccc2NC1=O)NCCCN1CCOCC1 (configuration not stated) please.
A) -2.31

Q) Report viability increase for COc1cc2c(cc1OC)CN(Cc1cccs1)CC2 please.
A) -1.14

Q) Report viability increase for OC(COCC1COc2ccccc2O1)CN1CCc2ccccc2C1 (configuration not stated) please.
A) -2.72

Q) Report viability increase for CC(C)N(Cc1nc2ccccc2[nH]1)C(C)C please.
A) -0.49

Q) Report viability increase for Cc1nc(CCNC(=O)COc2ccccc2)cs1 please.
A) -0.26

Q) Report viability increase for Cn1c(=O)c2c(nc(CN3CCc4ccccc4C3)n2Cc2cccc(Cl)c2)n(C)c1=O please.
A) -7.3

---

experiment: S. cerevisiae growth inhibition in restrictive medium, OD615, pilot screen, restrictive growth control, yeast lifespan reduction project (AID 706); details: OD615, 48 h, at 10 µM, stronger effect = higher value;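 note: modified DeaD lifespan yeast strain shifted to restrictive glucose medium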
Measured parameter: growth inhibition (%)
The reply should contain only the number, in %.

O=C(CNS(=O)(=O)c1cccs1)Nc1ccc2c(c1)OCCO2    -6.7
COc1ccc(-c2cn3c(C)c(C(=O)N4CCN(c5ccc(F)cc5)CC4)sc3n2)cc1    -2.07
CC(Sc1n[nH]c(=O)[nH]c1=O)C(=O)OCc1ccccc1 (stereo unspecified)    -8.41
O=C(Nc1cccc(F)c1)C1C2C=CC3(CN(CCCN4CCOCC4)C(=O)C13)O2 (stereo unspecified)    1.81
CCn1cc(SCC(=O)NCC2CCCO2)c2ccccc21 (stereo unspecified)    -6.71

Q) Report growth inhibition for CCOC(=O)N1CCC(NC(=O)c2cc(C(=O)NC3CCCC3)ccc2CO)CC1 please.
A) -3.18

Q) Report growth inhibition for CNC(=O)c1ccsc1NC(=O)CN1C(=O)CCC1=O please.
A) 0.46

Q) Report growth inhibition for O=C(CCC(=O)OCC(=O)c1ccccc1)NC1CCCCC1 please.
A) -5.45

Q) Report growth inhibition for CCc1cccc(NC(=O)CCc2nc(-c3cccs3)no2)c1 please.
A) -1.74

Q) Report growth inhibition for CCCCN=CC1=C(O)C(C(=O)OC)C(C)(C)CC1=O (stereo unspecified) please.
A) -5.23

Q) Report growth inhibition for Cc1cc(C)c(C(=O)Nc2ccc(S(=O)(=O)Nc3onc(C)c3C)cc2)c(C)c1 please.
A) -9.75

---

assay: MRP1 drug-resistance reversers in H69AR cells – cell-based, doxorubicin co-treatment, pilot screen (AID 601); details: H69AR cells + 2 uM doxorubicin, CellTiter-Glo, 72 h; measured here: viability with 2 uM doxorubicin; at 10 µM; stronger effect = lower value
Measured parameter: viability (%)
The reply should contain only the number, in %.

Cc1cccc(C2CC(c3ccccc3)Nc3nc(N)nn32)c1 (configuration not stated)    99.5
CN(Cc1ccccc1)S(=O)(=O)c1ccc(S(=O)(=O)N2CCN(CCC#N)CC2)cc1    61.8

Q) Report viability for COc1ccc(N2CCN(C(=O)C(C)(C)Oc3ccc(Cl)cc3)CC2)cc1 please.
A) 78.6

Q) Report viability for N#CC1=C(N)Oc2cc(O)ccc2C1C1CCCCC1 (configuration not stated) please.
A) 63.4

Q) Report viability for O=C(c1cccc(F)c1)N1CCc2ccccc21 please.
A) 95.6
